All values here come from patent US20220313698A1.

molecular target: CFTR-mediated chloride transport (Homo sapiens); test: Corrector Assay A - membrane potential dye assay (enteroid cells); conditions: % of chloride transport of triple combination control (1 μM (14S)-dispiro macrocycle + 3 μM tezacaftor + 300 nM ivacaftor)

compound	Corrector Assay A % activity
CC(O)CC1CC[C@@H]2CN(c3nc(C(C)(C)C)ccc3C(=O)NS(=O)(=O)c3cccc(n3)N1)C(C)(C)C2 (single isomer, unassigned) [Compound 20]	++ (++ is 30-60%)
Cn1nccc1C1CC[C@@H]2CN(c3nc(C(C)(C)C)ccc3C(=O)NS(=O)(=O)c3cccc(n3)N1)C(C)(C)C2 (single isomer, unassigned) [Compound 284]	++ (++ is 30-60%)

* * *

target: CFTR-mediated chloride transport (Homo sapiens); assay: Corrector Assay A - membrane potential dye assay (enteroid cells); conditions: % of chloride transport of triple combination control (1 μM (14S)-dispiro macrocycle + 3 μM tezacaftor + 300 nM ivacaftor)
reported metric: Corrector Assay A % activity

molecule	Corrector Assay A % activity
CC(C)C1CC[C@@H]2CN(c3nc(-n4ccc(OCCC5C6(CC6)C56CC6)n4)ccc3C(=O)NS(=O)(=O)c3cccc(n3)N1)C(C)(C)C2 (single isomer, unassigned) [Compound 354]	+++ (+++ is >60%)
CC(C)(C)c1ccc2c(n1)N1C[C@@H](CCC(c3ccc(Br)cn3)Nc3cccc(n3)S(=O)(=O)NC2=O)CC1(C)C (single isomer, unassigned) [Compound 172]	+++ (+++ is >60%)
CC(C)C1CC[C@@H]2CN(c3nc(-n4ccc(OCCC5(C(F)(F)F)CC5)n4)ccc3C(=O)NS(=O)(=O)c3cccc(n3)N1)C(C)(C)C2 (single isomer, unassigned)	+++ (+++ is >60%)
CC(C)(C)c1ccc2c(n1)N1C[C@@H](CCC(c3cc(N)ccn3)Nc3cccc(n3)S(=O)(=O)NC2=O)CC1(C)C (single isomer, unassigned) [Compound 48]	++ (++ is 30-60%)

We next turn to a different molecule, shown below.
# lookup: CC(C)(C)c1ccc2c(n1)N1C[C@@H](CC[C@@H](C3CCN(c4ncccn4)CC3)Nc3cccc(n3)S(=O)(=O)NC2=O)CC1(C)C (single isomer, unassigned) on CFTR-mediated chloride transport (Homo sapiens), Corrector Assay A % activity = ++ (++ is 30-60%)

* * *

target: CFTR-mediated chloride transport (Homo sapiens); test: Corrector Assay A - membrane potential dye assay (enteroid cells); conditions: % of chloride transport of triple combination control (1 μM (14S)-dispiro macrocycle + 3 μM tezacaftor + 300 nM ivacaftor)

compound	Corrector Assay A % activity
CC1(C)CC(C2CC[C@@H]3CN(c4nc(C(C)(C)C)ccc4C(=O)NS(=O)(=O)c4cccc(n4)N2)C(C)(C)C3)CC(C)(C)O1 (single isomer, unassigned) [Compound 42]	++ (++ is 30-60%)
CC(C)(C)c1ccc2c(n1)N1C[C@@H](CC[C@@H](c3cccc(C(F)(F)F)n3)Nc3cccc(n3)S(=O)(=O)NC2=O)CC1(C)C (single isomer, unassigned) [Compound 95]	++ (++ is 30-60%)

* * *

biological target: CFTR-mediated chloride transport (Homo sapiens, UniProt P13569); assay: Corrector Assay A - membrane potential dye assay (enteroid cells); settings: read-out: Corrector Assay A EC50; human intestinal enteroid cells, 18-24 h incubation; acute 10 μM forskolin + 300 nM ivacaftor
reported metric: EC50

These recorded examples may help you get a feel for the data.
compound	target or system	data value
CC(C)CC#Cc1ccc2c(n1)N1C[C@@H](CC[C@H](c3ccccn3)Nc3cccc(n3)S(=O)(=O)NC2=O)CC1(C)C [Compound 157]	CFTR-mediated chloride transport (Homo sapiens, UniProt P13569)	< 1000 nM
CC1(C)C[C@@H]2CC[C@H](c3ccccn3)Nc3cccc(n3)S(=O)(=O)NC(=O)c3ccc(C4=CCC(F)(F)CC4)nc3N1C2 [Compound 325]	CFTR-mediated chloride transport (Homo sapiens, UniProt P13569)	< 1000 nM

We next turn to a different compound, shown below.
Record Cc1cccc2cc3c(nc12)N1C[C@@H](CCC(c2cc(C(C)(C)C)ccn2)Nc2cccc(n2)S(=O)(=O)NC3=O)CC1(C)C (single isomer, unassigned) [Compound 4] , field EC50: < 1000 nM

* * *

molecular target: UniProtKB P13569; test: Corrector Assay A - membrane potential dye assay (enteroid cells); settings: % of chloride transport of triple combination control (1 μM (14S)-dispiro macrocycle + 3 μM tezacaftor + 300 nM ivacaftor)
reported metric: Corrector Assay A % activity

molecule	target or system	Corrector Assay A % activity
CC(C)(C)c1ccc2c(n1)N1C[C@@H](CCC(C(=O)O)Nc3cccc(n3)S(=O)(=O)NC2=O)CC1(C)C (single isomer, unassigned) [Compound 231]	UniProtKB P13569	+ (+ is <30%)
CC(=O)NCc1cccc([C@H]2CC[C@@H]3CN(c4nc(C(C)(C)C)ccc4C(=O)NS(=O)(=O)c4cccc(n4)N2)C(C)(C)C3)n1 [Compound 100]	UniProtKB P13569	+++ (+++ is >60%)
CC(C)(C)OC(=O)NCc1ccnc(C2CC[C@@H]3CN(c4nc(C(C)(C)C)ccc4C(=O)NS(=O)(=O)c4cccc(n4)N2)C(C)(C)C3)c1 (single isomer, unassigned) [Compound 119]	UniProtKB P13569	+++ (+++ is >60%)
CC(C)(C)c1ccc2c(n1)N1C[C@@H](CC[C@H](c3cccc(CCN)n3)Nc3cccc(n3)S(=O)(=O)NC2=O)CC1(C)C [Compound 104]	UniProtKB P13569	++ (++ is 30-60%)
CC(C)CN1c2cccc(n2)S(=O)(=O)NC(=O)c2ccc(C(C)(C)C)nc2N2C[C@@H](CC[C@H]1c1ccccc1)CC2(C)C (single isomer, unassigned) [Compound 271]	UniProtKB P13569	+ (+ is <30%)

Record CC(C)(C)c1ccc2c(n1)N1C[C@@H](CCC(c3ncccc3Cl)Nc3cccc(n3)S(=O)(=O)NC2=O)CC1(C)C (single isomer, unassigned) [Compound 65] , field Corrector Assay A % activity: ++ (++ is 30-60%)

Record CN(C)CCNc1cccc([C@H]2CC[C@@H]3CN(c4nc(C(C)(C)C)ccc4C(=O)NS(=O)(=O)c4cccc(n4)N2)C(C)(C)C3)n1 [Compound 189] , field Corrector Assay A % activity: ++ (++ is 30-60%)

Record COC[C@@H]1CC[C@@H]2CN(c3nc(C(C)(C)C)ccc3C(=O)NS(=O)(=O)c3cccc(n3)N1)C(C)(C)C2 (single isomer, unassigned) [Compound 277] , field Corrector Assay A % activity: +++ (+++ is >60%)

Record COc1ccn(-c2ccc3c(n2)N2C[C@@H](CC[C@H](c4ccccn4)Nc4cccc(n4)S(=O)(=O)NC3=O)CC2(C)C)n1 [Compound 335] , field Corrector Assay A % activity: +++ (+++ is >60%)

Record CC(C)(C)c1ccc2c(n1)N1C[C@@H](CC[C@@H](c3cc(C4=CCOCC4)ccn3)Nc3cccc(n3)S(=O)(=O)NC2=O)CC1(C)C (single isomer, unassigned) [Compound 125] , field Corrector Assay A % activity: +++ (+++ is >60%)

Record CC1(C)C[C@@H]2CC[C@H](c3ccccn3)Nc3cccc(n3)S(=O)(=O)NC(=O)c3ccc(C4CCC(F)(F)CC4)nc3N1C2 [Compound 324] , field Corrector Assay A % activity: +++ (+++ is >60%)

* * *

biological target: CFTR-mediated chloride transport (Homo sapiens, UniProt P13569); experiment: Corrector Assay A - membrane potential dye assay (enteroid cells); conditions: read-out: Corrector Assay A EC50; human intestinal enteroid cells, 18-24 h incubation; acute 10 μM forskolin + 300 nM ivacaftor
reported metric: EC50

These recorded examples may help you get a feel for the data.
compound	data value
CC(C)(C)c1ccc2c(n1)N1C[C@@H](CC[C@H](c3cccc(C4=CCOCC4)n3)Nc3cccc(n3)S(=O)(=O)NC2=O)CC1(C)C [Compound 150]	< 1 µM
CN(C)CCNc1cccc([C@H]2CC[C@@H]3CN(c4nc(C(C)(C)C)ccc4C(=O)NS(=O)(=O)c4cccc(n4)N2)C(C)(C)C3)n1 [Compound 189]	< 1 µM

We next turn to a different compound, shown below.
# lookup: CC(C)(C)c1ccc2c(n1)N1C[C@@H](CC[C@H](c3cccc(CCC#N)n3)Nc3cccc(n3)S(=O)(=O)NC2=O)CC1(C)C [Compound 140] on CFTR-mediated chloride transport (Homo sapiens, UniProt P13569), EC50 = < 1 µM

* * *

molecular target: CFTR-mediated chloride transport (Homo sapiens, UniProt P13569); test: Corrector Assay A - membrane potential dye assay (enteroid cells); details: % of chloride transport of triple combination control (1 μM (14S)-dispiro macrocycle + 3 μM tezacaftor + 300 nM ivacaftor)
reported metric: Corrector Assay A % activity

compound	data value
CC(C)(C)c1ccc2c(n1)N1C[C@@H](CCC(c3ccc(Cl)cn3)Nc3cccc(n3)S(=O)(=O)NC2=O)CC1(C)C (single isomer, unassigned) [Compound 208]	+++ (+++ is >60%)
CC1(C)OCCc2cc3c(nc21)N1C[C@@H](CCC(c2ccccn2)Nc2cccc(n2)S(=O)(=O)NC3=O)CC1(C)C (single isomer, unassigned) [Compound 212]	+++ (+++ is >60%)
CCCC1(C)CC2CCCNc3cccc(n3)S(=O)(=O)NC(=O)c3ccc(-n4ccc(OCCC5(C(F)(F)F)CC5)n4)nc3N1C2 (single isomer, unassigned)	+++ (+++ is >60%)
